System: serum 2 (individual 2)
Format: binding, human
Returns one of satisfied or not satisfied; satisfied when Binding of serum 2 to linear peptides of Orf14 of SARS-CoV TOR2 is >= 0.4.

# chain, label
rows = [
    ("EQHCQKASTQREAEA", "satisfied"),
    ("EWLAEVVKLPSRYCC", "satisfied"),
    ("VVAVIQEIQLLAAVG", "satisfied"),
    ("LLEWLAEVVKLPSRY", "not satisfied"),
    ("AVKPLLAPHHVVAVI", "satisfied"),
    ("HVVAVIQEIQLLAAV", "satisfied"),
    ("PCYNFLKEQHCQKAS", "not satisfied"),
]

# evaluate next
Query block: Quick check: does EAEAAVKPLLAPHHV have Binding of serum 2 to linear peptides of Orf14 of SARS-CoV TOR2 greater than or equal to 0.4?
Result block: satisfied

###

System: serum SARS-green
Type: binding, human
Some sequences, each annotated with its measured Binding of serum SARS-green to linear peptides of Orf14 of SARS-CoV TOR2.
Lab note: record just the number, no unit beside it.

# chain, observedResult
measured = [
    ("HVVAVIQEIQLLAAV", 0.1),
    ("LAPHHVVAVIQEIQL", 0.1),
]

Query block: Query the reported Binding of serum SARS-green to linear peptides of Orf14 of SARS-CoV TOR2 for serum SARS-green; item: AAVGEILLLEWLAEV
Result block: 0.5

Query block: # value lookup — system serum SARS-green, readout Binding of serum SARS-green to linear peptides of Orf14 of SARS-CoV TOR2, item HHVVAVIQEIQLLAA
Result block: 0.2

Query block: Identify the measured Binding of serum SARS-green to linear peptides of Orf14 of SARS-CoV TOR2 of PCYNFLKEQHCQKAS for serum SARS-green.
Result block: 0.1

Query block: Which Binding of serum SARS-green to linear peptides of Orf14 of SARS-CoV TOR2 is reported with serum SARS-green for this entry: PPCYNFLKEQHCQKA ?
Result block: 0.1

Query block: What Binding of serum SARS-green to linear peptides of Orf14 of SARS-CoV TOR2 appears in the records for this sequence with serum SARS-green? QEIQLLAAVGEILLL
Result block: 0.2

Query block: Kindly state the measured Binding of serum SARS-green to linear peptides of Orf14 of SARS-CoV TOR2 obtained for KEQHCQKASTQREAE with serum SARS-green.
Result block: 0.1

Query block: What reported Binding of serum SARS-green to linear peptides of Orf14 of SARS-CoV TOR2 corresponds to STQREAEAAVKPLLA on serum SARS-green?
Result block: 0.4

###

Tested on: serum 2 (individual 2)
Assay type: binding, human
We use 0.5 as the dividing line for Binding of serum 2 to linear peptides of Orf14 of SARS-CoV TOR2: on or above the line is fulfilled, below is not fulfilled.

See these solved cases before continuing.
# chain, testedSystem, label
rows = [
    ("CQKASTQREAEAAVK", "serum 2 (individual 2)", "not fulfilled"),
    ("AAVGEILLLEWLAEV", "serum 2 (individual 2)", "fulfilled"),
    ("APHHVVAVIQEIQLL", "serum 2 (individual 2)", "not fulfilled"),
    ("KASTQREAEAAVKPL", "serum 2 (individual 2)", "not fulfilled"),
    ("QREAEAAVKPLLAPH", "serum 2 (individual 2)", "not fulfilled"),
]

Query block: Quick check: does IQEIQLLAAVGEILL have Binding of serum 2 to linear peptides of Orf14 of SARS-CoV TOR2 greater than or equal to 0.5?
Result block: not fulfilled

Query block: Evaluate HCQKASTQREAEAAV : Binding of serum 2 to linear peptides of Orf14 of SARS-CoV TOR2 at minimum 0.5?
Result block: fulfilled

Query block: State whether the measured Binding of serum 2 to linear peptides of Orf14 of SARS-CoV TOR2 reaches 0.5, counting equality as reaching it, for KEQHCQKASTQREAE
Result block: not fulfilled

Query block: I'd appreciate it if you could say whether VAVIQEIQLLAAVGE has Binding of serum 2 to linear peptides of Orf14 of SARS-CoV TOR2 at least equal to 0.5.
Result block: not fulfilled

Query block: Given VGEILLLEWLAEVVK , state whether its Binding of serum 2 to linear peptides of Orf14 of SARS-CoV TOR2 is at least 0.5.
Result block: not fulfilled

Query block: Can VKPLLAPHHVVAVIQ be said to have Binding of serum 2 to linear peptides of Orf14 of SARS-CoV TOR2 at or above 0.5?
Result block: fulfilled
